assay-remarks: chemical genetic growth profiling, strain panel (AID 1159580);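 note: tested at 20 µM; growth read once vehicle control cultures reached saturation at 30 °C; 1 = growth at the plate median or of vehicle wells; lower values mean less growth of the strain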
protocol-conditions: S. cerevisiae deletion strains, growth OD, locus YDR001C, strain nth1, hits give low values
In all, about 5,500 compounds went through this assay and about 2,000 (36%) were called active. Inconclusive results (about 18%) are left out. Some of the results follow.
For each entry below, report its normalized growth value.
Please give the numeric answer without any surrounding text.

INPUT: Consider the compound CC(C)(S)[C@@H](N)C(=O)O . State its measured normalized growth.
OUTPUT: 1

INPUT: Consider the compound C=C[C@@]1(C)CC(=O)[C@@]2(O)[C@](C)(O1)[C@@H](OC(C)=O)[C@@H](O)C1C(C)(C)CC[C@H](O)[C@@]12C (stereo not given in full) . State its measured normalized growth.
OUTPUT: 0.976

INPUT: Consider the compound C[C@]12C=CC(=O)C=C1CCC1C2[C@@H](O)C[C@@]2(C)C1CC[C@]2(O)C(=O)CO (stereo not given in full) . State its measured normalized growth.
OUTPUT: 0.997

INPUT: Consider the compound N[C@@H](C(=O)O)[C@@H](O)[C@H](O)[C@H](O)CO . State its measured normalized growth.
OUTPUT: 1.02

INPUT: Consider the compound COc1ccc(-c2oc3cc(OC)c(OC)c(OC)c3c(=O)c2OC)cc1OC . State its measured normalized growth.
OUTPUT: 0.978

INPUT: Consider the compound CC(=O)OCC(=O)[C@@]1(O)CCC2C3CCC4=CC(=O)C=CC4(C)C3[C@@H](O)C[C@@]21C (stereo not given in full) . State its measured normalized growth.
OUTPUT: 1

INPUT: Consider the compound CN1CCC[C@@H]1CCO[C@](C)(c1ccccc1)c1ccc(Cl)cc1 . State its measured normalized growth.
OUTPUT: 1.02

INPUT: Consider the compound COc1ccc2oc3ccccc3c(=O)c2c1 . State its measured normalized growth.
OUTPUT: 0.944

INPUT: Consider the compound CC(C)=CC1C(C(=O)OCc2cccc(Oc3ccccc3)c2)C1(C)C (stereo not given) . State its measured normalized growth.
OUTPUT: 1.01

INPUT: Consider the compound O=C(O)C(O)C(O)C(=O)O (stereo not given) . State its measured normalized growth.
OUTPUT: 0.996
